FYI, the data here is from PubChem BioAssay (NCI).

Test system: T-47D breast
protocol.summary: NCI tumour cell line growth inhibition, 48 h
metric: TGI

# compound, TGI
measured = [
    ("Cn1c(=O)c2c(n(C)c1=O)n1c(=O)c3ccccc3nc1n2C", "> 100 µM"),
    ("Nc1c(/C=C/c2cc3cc(C4=NCCN4)ccc3o2)[nH]c2cc(C3=NCCN3)ccc12", "> 100 µM"),
    ("COc1cccc2c(Nc3ccc(C(=O)NCCN4CCNCC4)cc3)cc(-c3ccccc3)nc12", "> 100 µM"),
    ("Brc1ccc2c(c1)-c1ccccc1C1=NCCN12", "18.4 µM"),
    ("CCc1c[nH]c2ncnc(N3CC[C@](N)(CNC(=O)c4ccc(F)cc4F)C3)c12", "11.1 µM"),
    ("COc1cc(-c2nn(-c3cccc(NC(=O)c4cccc(C(F)(F)F)c4)c3)cc2-c2ccncc2)ccc1Cl", "> 50 µM"),
]

Please state recorded TGI (tested on T-47D breast) of CCn1c(SC)nnc1-c1cc2c([nH]c3ccccc32)c(-c2cccc(O)c2)n1
22.5 µM

Please state recorded TGI (tested on T-47D breast) of N/N=C(\N)SCc1ccc(N=C=S)cc1
> 100 µM

Please state recorded TGI (tested on T-47D breast) of O=C1c2sccc2C(=O)c2c(CO)csc21
17.5 µM

Please state recorded TGI (tested on T-47D breast) of COc1ccc(Cl)cc1Nc1nc(C(F)(F)F)ccc1C(=O)N/N=C/c1ccc(Cl)cc1
> 100 µM

Please state recorded TGI (tested on T-47D breast) of O=P1(C(O)c2ccccc2)N(Cc2ccccc2)[C@@H]2CCCC[C@H]2N1Cc1ccccc1 (stereo not given in full)
85.6 µM

Please state recorded TGI (tested on T-47D breast) of CC(C)c1nc(Cl)c(Cl)c(Cl)n1
42.7 µM

Please state recorded TGI (tested on T-47D breast) of CC(C)C12CCC3(CCC4C(C)(C(=O)O)CCCC4(C)C3C1)C(CN)C2 (stereo not given)
> 100 µM

====

Each record here notes measured TGI.
Tested on: SK-MEL-28 melanoma
protocol.summary: NCI tumour cell line growth inhibition, 48 h

These solved cases illustrate the format of a correct answer.
# molecule, metric, result
data = [
    ("O=C(CO[N+](=O)[O-])OCC(=O)c1ccccc1", "TGI", "> 100 µM"),
    ("CC(=O)CC(=O)N1CCOC1=O", "TGI", "> 10 µM"),
    ("C[C@@H](c1ccccc1)N(CC#N)[C@H]1CCC[C@]1(O)/C=C/c1ccc2c(c1)OCO2", "TGI", "> 25 µM"),
    ("N#Cc1c(N)nc(N2CCOCC2)c(C#N)c1-c1ccc(Cl)cc1Cl", "TGI", "53.1 µM"),
]

If you can, please state the reported TGI value of COc1ccc(NC(=S)Nc2cccc(C)n2)cc1 .
> 100 µM

If you can, please state the reported TGI value of CCCCCCCCCCCCCCCC(=O)OCC(COP(=O)(O)OCCNC(=O)CCSSc1ccccn1)OC(=O)CCCCCCCCCCCCCCC (configuration not stated) .
> 100 µM

If you can, please state the reported TGI value of COc1cc(COC(=O)NC(Cc2cccs2)C(=O)O)c([N+](=O)[O-])cc1OC (configuration not stated) .
> 100 µM

If you can, please state the reported TGI value of Clc1cc2ncn(C3CCCO3)c2cc1Cl (configuration not stated) .
> 100 µM

If you can, please state the reported TGI value of O=C(/C=C/N1CCN(c2cccc(Cl)c2)CC1)c1ccc(Cl)cc1 .
91.2 µM

If you can, please state the reported TGI value of Nc1nc(Nc2cc(F)c(Cl)c(F)c2)cc(=O)[nH]1 .
> 100 µM

If you can, please state the reported TGI value of CCN(CC)CCCNc1nnc(C)c2[nH]c3ccccc3c12 .
40.6 µM

If you can, please state the reported TGI value of Cn1ncc2c(c1=O)Nc1ccccc1S2(=O)=O .
> 100 µM

====

Test system: IGROV1 ovarian
protocol.summary: NCI tumour cell line growth inhibition, 48 h
metric: GI50

# compound, result
data = [
    ("COc1ccc(C[C@H](N)C(=O)N[C@@H]2[C@@H](CO)OC(n3cnc4c(N(C)C)ncnc43)[C@@H]2O)cc1 (stereo partly drawn)", "0.539 µM"),
]

If you can, please state the reported GI50 value of Cc1c(N)nc(C2CC(=O)N2CC(N)C(N)=O)nc1C(=O)NC(C(=O)NC(C)C(O)C(C)C(=O)NC(C(=O)NCCc1nc(-c2nc(C(=O)NCCNCC(C)O)cs2)cs1)C(C)O)C(OC1OC(CO)C(O)C(O)C1OC1OC(CO)C(O)C(OC(N)=O)C1O)c1cnc[nH]1 (stereo not drawn) .
13.4 µM

If you can, please state the reported GI50 value of COc1ccc(S(=O)(=O)NCCCNc2nccc(-c3c(-c4ccc(F)cc4)nc4sccn34)n2)cc1 .
5.59 µM

====

Test system: MCF7 breast
protocol.summary: NCI tumour cell line growth inhibition, 48 h
metric: TGI

These solved cases illustrate the format of a correct answer.
# molecule, TGI
rows = [
    ("Cn1c(=O)c(-c2c(Cl)cccc2Cl)cc2cnc(Nc3ccc(N4CCOCC4)cc3)nc21", "> 100 µM"),
    ("CS(=O)(=O)Nc1ccc(Nc2c3ccccc3nc3cc(Cl)ccc23)cc1", "13.4 µM"),
    ("CCc1c[nH]c2ncnc(N3CC[C@](N)(CNC(=O)c4ccc(F)cc4F)C3)c12", "> 100 µM"),
    ("CCOC(=O)C1(NC(=O)OC(C)(C)C)CCc2[nH]oc(=O)c2C1 (stereo not given)", "> 100 µM"),
]

Turning now to a further molecule:
Please state recorded TGI (tested on MCF7 breast) of CCNc1nc(-c2ccc(Cl)c(OC)c2)c(-c2ccnc(NCCNS(=O)(=O)c3ccc(Cl)cc3)n2)s1
> 100 µM

====

Each record here notes measured TGI.
System: EKVX NSCLC
protocol.summary: NCI tumour cell line growth inhibition, 48 h

# compound, TGI
data = [
    ("CC(=O)Oc1c(OC(C)C)cc(=O)n2ccsc12", "> 100 µM"),
    ("N#Cc1c(N)nc(N2CCOCC2)c(C#N)c1-c1ccc(Cl)cc1Cl", "64.3 µM"),
    ("O=[N+]([O-])C1(CO)COC(CCc2ccccc2)OC1 (stereo not given)", "> 100 µM"),
    ("Nc1nc2c(c(-c3ccc(F)cc3)n1)COC/C2=C\\c1ccc(F)cc1", "> 100 µM"),
]

If you can, please state the reported TGI value of CC(C)=NO.CC(C)=NO.CC(C)=NO.CC(C)=NO.[Ti] .
> 100 µM

====

System: M14 melanoma
protocol.summary: NCI tumour cell line growth inhibition, 48 h
Each record here notes measured GI50.

These solved cases illustrate the format of a correct answer.
# compound, GI50
records = [
    ("CCNc1nc(-c2ccc(Cl)c(OC)c2)c(-c2ccnc(NCCNS(=O)(=O)c3ccc(Cl)cc3)n2)s1", "3820 nM"),
    ("ClCc1ccc(Cn2cnc3nc(Cl)nc(Cl)c32)cc1", "1310 nM"),
    ("CS(=O)(=O)Nc1ccc(Nc2c3ccccc3nc3cc(Cl)ccc23)cc1", "812 nM"),
]

Turning now to a further compound:
Please state recorded GI50 (tested on M14 melanoma) of Cc1c(N)nc(C2CC(=O)N2CC(N)C(N)=O)nc1C(=O)NC(C(=O)NC(C)C(O)C(C)C(=O)NC(C(=O)NCCc1nc(-c2nc(C(=O)NCCNCC(C)O)cs2)cs1)C(C)O)C(OC1OC(CO)C(O)C(O)C1OC1OC(CO)C(O)C(OC(N)=O)C1O)c1cnc[nH]1 (centres undefined)
7910 nM

====

System: SNB-75 CNS
protocol.summary: NCI tumour cell line growth inhibition, 48 h
metric: GI50

These solved cases illustrate the format of a correct answer.
# smiles.entry, GI50
rows = [
    ("CCNc1nc(-c2ccc(Cl)c(OC)c2)c(-c2ccnc(NCCNS(=O)(=O)c3ccc(Cl)cc3)n2)s1", "2.35 µM"),
    ("N#Cc1c(N)nc(N2CCOCC2)c(C#N)c1-c1ccc(Cl)cc1Cl", "6.31 µM"),
    ("O=C(NCc1cccnc1)c1ccc([N+](=O)[O-])o1", "1.18 µM"),
]

If you can, please state the reported GI50 value of Cc1cc(N(CCCl)CCCl)ccc1/C=N\NC(=O)c1cccnc1 .
25.5 µM

If you can, please state the reported GI50 value of COc1cc2c(cc1OCCCN1CCN(CCCn3c4ccccc4c4ccccc43)CC1)N=C[C@@H]1CCCN1C2=O .
< 0.0395 µM

====

Tested on: NCI-H522 lung
protocol.summary: NCI tumour cell line growth inhibition, 48 h
Each record here notes measured GI50.

These solved cases illustrate the format of a correct answer.
# molecule, experimental.target, GI50
rows = [
    ("OCCn1c(-c2ccncc2)c(-c2ccc(F)cc2)c2ncccc21", "NCI-H522 lung", "> 25000 nM"),
    ("CC(C)=NO.CC(C)=NO.CC(C)=NO.CC(C)=NO.[Ti]", "NCI-H522 lung", "> 100000 nM"),
    ("ClCc1ccc(Cn2cnc3nc(Cl)nc(Cl)c32)cc1", "NCI-H522 lung", "1850 nM"),
]

If you can, please state the reported GI50 value of CS(=O)(=O)Nc1ccc(Nc2c3ccccc3nc3cc(Cl)ccc23)cc1 .
2330 nM

If you can, please state the reported GI50 value of Cn1c(=O)c(Oc2ccc(F)cc2F)cc2cnc(NC3CCC(O)CC3)nc21 (stereo unspecified) .
> 25000 nM

If you can, please state the reported GI50 value of CCNc1nc(-c2ccc(Cl)c(OC)c2)c(-c2ccnc(NCCNS(=O)(=O)c3ccc(Cl)cc3)n2)s1 .
1920 nM
